- TEST_DETAILS: Dicamba decarboxylation activity of computationally designed protein variants
- APPLIED_CONDITIONS: Table 4, variants designed to introduce activity
READOUT_TYPE: Dicamba Decarboxylation activity

MOLECULE	REPORTED_RESULT
95 (protein, listed as Pseudomonas fluorescens) MAKKPRIDMHSHFFPRISEQEAAKFDANHAPWLQVSAKGDTGSIMMGKNNFRPVYQALWDPAFRIEEMDAQGVDVQVTCATPVMFGYTWEANKAAQWAERMNDFALEFAAHNPQRIKVLAQVPLQDLDLACKEASRAVAAGHLGIQIGNHLGDKDLDDATLEAFLTHCANEDIPILVHPWDMMGGQRMKKWMLPWLVAMPAETQLAILSLILSGAFERIPKSLKICFGHGGGSFAFLLGRVDNAWRHRDIVREDCPRPPSEYVDRFFVDSAVFNPGALELLVSVMGEDRVMLGSDYPFPLGEQKIGGLVLSSNLGESAKDKIISGNASKFFNINV	No
